- experimental protocol: Caco-2 permeability
- Format: in vitro ADME
- assay conditions: human, Caco-2, pH 7.4; A to B; read-out: Caco-2 Permeability Apical to Basal (Papp)
readout kind: Papp A→B at 90 min, 10 µM (×10⁻⁶ cm/s)
Hi! Could you send only the number? It should be in ×10⁻⁶ cm/s, unit omitted.

Task: GET /values?readout=Papp A→B at 90 min, 10 µM&item= O=C(NC12CC3CC(CC(C3)C1)C2)NS(=O)(=O)c1ccc(OC(F)(F)F)cc1 [Compound 4f]
Output: 14.9

* * *

- experimental protocol: Plasma protein binding (equilibrium dialysis), human
- Assay type: in vitro ADME
- assay conditions: plasma (non-diluted), pH 7.4, read-out: Plasma Protein Binding Human % of Bound Comp
readout kind: fraction unbound at 5 h, 1 μM

Task: GET /values?readout=fraction unbound at 5 h, 1 μM&item= O=C(NC12CC3CC(CC(C3)C1)C2)NS(=O)(=O)c1ccc2ccccc2c1
Output: < 0.001

Task: Please do the same for O=C(NC12CC3CC(CC(C3)C1)C2)NS(=O)(=O)c1ccc(OC(F)(F)F)cc1 as well.
Output: < 0.001
